- Tested on: HCT-116
- test_name: NCI tumour cell line growth inhibition, 48 h
The source made the active and inactive calls. Cut-off read from the data, not from the text of the source: active = GI50 up to about 1.1 µM and inactive = higher.
Choose the fitting class; nothing outside TRUE for active, FALSE for inactive is accepted.

Past entries and their recorded results:
compound	qualitative_label
Cc1ccc(CC2(C(=O)O)Cc3ccc(C)cc3C2)cc1 (stereo not given)	FALSE
CCN(CC)CCCC(C)Nc1c2ccc(Cl)cc2nc2cc(Cl)ccc12 (stereo not given)	FALSE
CC(C(=O)O)C(C)(O)C(=O)O (stereo not given)	FALSE
Nc1ccc(/N=N/c2ccc(-c3ccc(/N=N/c4c(S(=O)(=O)O)cc5cc(S(=O)(=O)O)c(/N=N/c6ccc([N+](=O)[O-])cc6)c(N)c5c4O)cc3)cc2)c2cc(S(=O)(=O)O)ccc12	FALSE

**Query** Each compound tested received a call. Report the one for CC(C)(C)OC/C=C(/CO)[C@@H]1C=C[C@H](O)C1 .
**Result** FALSE

**Query** One more compound: C/N=C(\S)N/N=C/C(C)=N/N/C(S)=N/C
**Result** TRUE

**Query** Item: CC(C)CC1NC(=O)C(C(C)C)NC(=O)CC(C)COC(=O)C(CC(C)C)N(C)C(=O)C(C(C)C)NC(=O)C(C(C)C)OC1=O (stereo not given)
**Result** FALSE

* * *

- System: HT-29
- test_name: NCI tumour cell line growth inhibition, 48 h
Calls of active or inactive are those of the source. No stated cut-off is given here; in the data, active = GI50 up to about 1.1 µM and inactive = higher.
reported_property: GI50

compound	reported
CC(C)(Cl)C(Br)CCC(C)(Cl)C(Br)CBr (stereo not given)	19.5 µM (inactive)
CC(=O)OCC1OC(n2ncc(=O)[nH]c2=O)C(OC(C)=O)C1OC(C)=O (stereo not given)	6.67 µM (inactive)
O=C(C/N=C(\CN(c1ccccc1)c1ccccc1)Oc1c([N+](=O)[O-])cc([N+](=O)[O-])cc1[N+](=O)[O-])N1CCNCC1	> 100 µM (inactive)
C=C1C(=O)[C@@]23CC[C@H]4[C@@](C)(CCC[C@@]4(C)C(=O)OC)[C@@H]2CC[C@]1(O)C3	1.27 µM (inactive)
CN1CCN(CCCNN)CC1	> 100 µM (inactive)
C[C@]12CCC(=O)C(O)=C1CCC2=O	> 100 µM (inactive)
Cc1ccc2c(c1)C(=S)N1CSCC1c1nncn1-2 (stereo not given)	> 100 µM (inactive)
COC(=O)c1c(C)cccc1C1CN=NC12Cc1cccc(C)c1C2=O (stereo not given)	33 µM (inactive)
COC(=O)c1cc2c(n1S(=O)(=O)c1ccc(C)cc1)C(=O)C(=O)c1[nH]cc(C(=O)OCc3ccccc3)c1-2	0.273 µM (active)
COc1cc2c3c(n(CCCNCCO)c(=O)c2cc1OC)-c1cc2c(cc1C3=O)OCO2	< 0.0311 µM (active)

**Query** Quick check: GI50 of C=C[C@@]1(O)CCCC[C@@H]1CC(Sc1ccccc1)Sc1ccccc1 ?
**Result** 19.4 µM (inactive)

**Query** Try this compound too: C=C(C)C1CC2(C)C(C)CC(OC(=O)/C(C)=C\C)CC2C(OC(=O)/C(C)=C\C)C1O (stereo not given)
**Result** 35.8 µM (inactive)

**Query** // next record COc1cc2cc(C(=O)N3CC(CCl)c4ccc([N+](C)(C)Cc5ccccc5[N+](=O)[O-])cc43)[nH]c2c(OC)c1OC (stereo not given)
**Result** 0.962 µM (active)

**Query** // query: CC(C)(C)OC/C=C(/CO)[C@@H]1C=C[C@H](O)C1
**Result** > 100 µM (inactive)

**Query** What about this compound? O=C(NNC(=S)Nc1cccc(Cl)c1)c1cc(-c2ccccc2)nc2ccccc12
**Result** 20.4 µM (inactive)

**Query** What about this compound? C=CCNC1=C2C[C@@H](C)C[C@@H](OC)[C@H](OC(=O)CCN(C)C)[C@H](C)/C=C(\C)[C@@H](OC(N)=O)[C@H](OC)/C=C\C=C(/C)C(=O)NC(=CC1=O)C2=O
**Result** < 0.01 µM (active)

**Query** O=C(O)CCNc1[nH]cnc2ncnc1-2 ?
**Result** > 100 µM (inactive)

**Query** Queued: Clc1ccc(-c2c(C3=NCCCN3)nnn2-c2ccccc2)cc1
**Result** 40.1 µM (inactive)

**Query** Then this compound: CCn1c2ccc(C(=O)CCCN(C)C)cc2c2cc(C(=O)CCCN(C)C)ccc21
**Result** 0.509 µM (active)

**Query** Follow-up item: COc1ccc(/C=c2\sc3n(c2=O)CCN=3)cc1
**Result** > 100 µM (inactive)

Hello, the source for this data is ChEMBL document CHEMBL1201862, in case you need it.
